- SYSTEM: MLL3_(ePHD6)1055–1144 (Homo sapiens)
- Construct: MLL3_ePHD6, residues 1055–1144 and residues 1075–1144; GST (N, cleaved yes); His (N, cleaved yes); made in house; host or cells: E. coli BL21 (DE3) Codon plus RIL
- Sequence (Q8NEZ4 1055-1144): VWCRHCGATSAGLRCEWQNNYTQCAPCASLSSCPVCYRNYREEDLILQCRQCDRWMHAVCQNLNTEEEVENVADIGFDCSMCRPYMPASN
- METHOD NOTES: ITC binding of histone peptides to MLL3 ePHD6 (1055–1144)
- SETTINGS: Supplementary Fig. 4 and 7, MLL3_ePHD6; pH 7.5, 25 °C
READOUT LABEL: ITC titration, Kd

substance="H411–21K16A: histone H4-derived mutant peptide (GKGGAARHRKV; UniProt P62805 12-22, looked up, variant K16A)" readout_label="ITC titration, Kd" observed_result="Weak binding"
substance="H411–21R19A: histone H4-derived mutant peptide (GKGGAKRHAKV; UniProt P62805 12-22, looked up, variant R19A)" readout_label="ITC titration, Kd" observed_result="Weak binding"
substance="H411–21H18A: histone H4-derived mutant peptide (GKGGAKRARKV; UniProt P62805 12-22, looked up, variant H18A)" readout_label="ITC titration, Kd" observed_result=NB
substance="H411–21R17A: histone H4-derived mutant peptide (GKGGAKAHRKV; UniProt P62805 12-22, looked up, variant R17A)" readout_label="ITC titration, Kd" observed_result=NB

* * *

- SYSTEM: MLL4_(ePHD6)1475–1564 (Homo sapiens, UniProt O14686)
- Construct: MLL4_ePHD6, residues 1475–1564, and residues 1495–1564; GST (N, cleaved yes); His (N, cleaved yes); made in house; host or cells: E. coli BL21 (DE3) Codon plus RIL
- Sequence (O14686 1475-1564): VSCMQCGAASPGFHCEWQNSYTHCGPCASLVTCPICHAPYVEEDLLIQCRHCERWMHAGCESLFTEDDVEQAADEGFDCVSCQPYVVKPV
- METHOD NOTES: ITC binding of histone peptides to MLL4 ePHD6 (1475–1564)
- Design: key: NB: no detectable binding
- SETTINGS: Supplementary Fig. 4 and 7, MLL4_ePHD6; pH 7.5, 25 °C
- Source text: […]
READOUT LABEL: ITC titration, Kd

substance="H411–21R17A: histone H4-derived mutant peptide (GKGGAKAHRKV; UniProt P62805 12-22, looked up, variant R17A)" observed_result=NB
substance="H411–21H18A: histone H4-derived mutant peptide (GKGGAKRARKV; UniProt P62805 12-22, looked up, variant H18A)" observed_result=NB
substance="H411–21K16A: histone H4-derived mutant peptide (GKGGAARHRKV; UniProt P62805 12-22, looked up, variant K16A)" observed_result="Weak binding"
substance="H411–21R19A: histone H4-derived mutant peptide (GKGGAKRHAKV; UniProt P62805 12-22, looked up, variant R19A)" observed_result="Weak binding"

Data origin: paper PMC6318328
